system: S. aureus (ATCC 43300); format: cell-based, Staphylococcus aureus; conditions: S. aureus ATCC 43300; antibiotic alone, 99.9% killing, triplicate
Listed compounds paired with reported Antibiotics MBC Alone

| Substance Smiles | Antibiotics MBC Alone (µM) |
| --- | --- |
| CO[C@H]1/C=C/O[C@@]2(C)Oc3c(C)c(O)c4c(O)c(c(/C=N/N5CCN(C)CC5)c(O)c4c3C2=O)NC(=O)/C(C)=C\C=C\[C@H](C)[C@H](O)[C@@H](C)[C@@H](O)[C@@H](C)[C@H](OC(C)=O)[C@@H]1C | 1 |
| O=C(N[C@H](CO)[C@H](O)c1ccc([N+](=O)[O-])cc1)C(Cl)Cl | 20 |
| C[C@H]1COc2c(N3CCN(C)CC3)c(F)cc3c(=O)c(C(=O)O)cn1c23 | 20 |
| CC[C@H]1OC(=O)[C@H](C)[C@@H](O[C@H]2C[C@@](C)(OC)[C@@H](O)[C@H](C)O2)[C@H](C)[C@@H](O[C@@H]2O[C@H](C)C[C@H](N(C)C)[C@H]2O)[C@](C)(O)C[C@@H](C)C(=O)[C@H](C)[C@@H](O)[C@]1(C)O | 150 |
| CC1(C)S[C@@H]2[C@H](NC(=O)[C@H](N)c3ccccc3)C(=O)N2[C@H]1C(=O)O | 20 |

----------
experiment: in vitro; format: in vitro ADME; conditions: mouse, plasma
Square brackets hold non-standard residues; d marks the D form. Peptide text beside a SMILES is read from it. Bip = N[C@@H](Cc1ccc(-c2ccccc2)cc1)C(=O)O
Test Readout: remaining at 4 h, 75 µg/mL (%)

| Compound | Test Readout | Meas Value |
| --- | --- | --- |
| N=C(N)NCCC[C@H](NC(=O)[C@H](Cc1ccc(-c2ccccc2)cc1)NC(=O)[C@H](CCCNC(=N)N)NC(=O)[C@H](Cc1ccc(-c2ccccc2)cc1)NC(=O)[C@@H](N)CCCNC(=N)N)C(=O)O [UP-5] (H-R[Bip]R[Bip]R-OH) | remaining at 4 h, 75 µg/mL | 34 |

----------
system: S. aureus (ATCC 29213); test: Broth microdilution checkerboard, UP-5 with antibiotics; type: cell-based, Staphylococcus aureus; details: S. aureus ATCC 29213; antibiotic MIC in combination with UP-5 compared to MIC alone
Listed compounds paired with reported Antibiotics Reduction in MIC (%)

| Compound | Antibiotics Reduction in MIC (%) |
| --- | --- |
| CC[C@H]1OC(=O)[C@H](C)[C@@H](O[C@H]2C[C@@](C)(OC)[C@@H](O)[C@H](C)O2)[C@H](C)[C@@H](O[C@@H]2O[C@H](C)C[C@H](N(C)C)[C@H]2O)[C@](C)(O)C[C@@H](C)C(=O)[C@H](C)[C@@H](O)[C@]1(C)O [Erythromycin, erythromycin] | <50% |
| C[C@H]1COc2c(N3CCN(C)CC3)c(F)cc3c(=O)c(C(=O)O)cn1c23 [Levofloxacin, levofloxacin] | 90% |
| CC1(C)S[C@@H]2[C@H](NC(=O)[C@H](N)c3ccccc3)C(=O)N2[C@H]1C(=O)O [Ampicillin, ampicillin] | <50% |
| CO[C@H]1/C=C/O[C@@]2(C)Oc3c(C)c(O)c4c(O)c(c(/C=N/N5CCN(C)CC5)c(O)c4c3C2=O)NC(=O)/C(C)=C\C=C\[C@H](C)[C@H](O)[C@@H](C)[C@@H](O)[C@@H](C)[C@H](OC(C)=O)[C@@H]1C [Rifampicin, rifampicin] | <50% |
